B1: EPB41L3 (parent)
chain: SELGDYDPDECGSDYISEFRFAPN

- Variants of: B1
- Test: protein stability index of a GFP-peptide fusion (GPS, HEK-293T) (PSI 1-6); higher = more stable;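 also: lentivirally expressed fusions sorted by FACS into six bins by GFP to DsRed ratio, PSI derived from sequencing read proportions per bin multiplied by bin number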
- Conditions: c terminus: a fixed tail appended
# key: entry, value: protein stability index
Enter a number only.

Previously resolved entries follow.
A22V ... 3.42
L3A ... 2.05
A22P ... 4
Y6H ... 1.73
Y6Q ... 2.11

// below: protein stability index requested for another variant
Determine from records and report protein stability index for P23F
2.96
